Hello, the source for this data is ChEMBL document CHEMBL4828763, in case you need it.

Overview of reported pIC50 across a group of compounds:
Test system: BT-549
assay-text: Growth inhibition of human BT-549 cells assessed as cell viability measured after 4 days by WST8 assay
Assay type: functional, cell-based
setup-conditions: BT-549, 96 h
As a rule, pIC50 stands for the negative log10 of the concentration, concentration in M.

// worked examples, pIC50 included
INSERT INTO assay_data (compound, tested_target, endpoint_value) VALUES
  ('CC(C)c1cnn2c(NCc3ccc(NC(=O)CCCCCCCOc4cccc5c4C(=O)N(C4CCC(=O)NC4=O)C5=O)cc3)nc(OC3CCN(C)CC3)nc12 (stereo not drawn)', 'BT-549', 7.32),
  ('CC(C)c1cnn2c(NCc3ccc(NC(=O)CCCCCN4CCN(CCCCCc5cccc6c5CN(C5CCC(=O)NC5=O)C6=O)CC4)cc3)nc(OC3CCN(C)CC3)nc12 (stereo not drawn)', 'BT-549', 7.10),
  ('CC(C)c1cnn2c(NCc3ccc(NC(=O)N4CCN(CCCCCc5cccc6c5CN(C5CCC(=O)NC5=O)C6=O)CC4)cc3)nc(OC3CCN(C)CC3)nc12 (stereo not drawn)', 'BT-549', 7.13),
  ('CC(C)c1cnn2c(NCc3ccc(NC(=O)CCCCCCNC(=O)COc4cccc5c4C(=O)N(C4CCC(=O)NC4=O)C5=O)cc3)nc(OC3CCN(C)CC3)nc12 (stereo not drawn)', 'BT-549', 5.79),
  ('CC(C)c1cnn2c(NCc3ccccc3)cc(NCCCCCCN)nc12', 'BT-549', 4.89),
  ('CC(C)c1cnn2c(NCc3ccc(NC(=O)CCCCCOc4cccc5c4C(=O)N(C4CCC(=O)NC4=O)C5)cc3)nc(OC3CCN(C)CC3)nc12 (stereo not drawn)', 'BT-549', 6.43);

The compound listed as CC(C)c1cnn2c(NCc3cc(CCCCCCNC(=O)COc4cccc5c4C(=O)N(C4CCC(=O)NC4=O)C5=O)ccc3N(C)C)nc(OC3CCN(C)CC3)nc12 (stereo not drawn) shows pIC50 equal to 4.90

The compound listed as CC(C)c1cnn2c(NCc3cccc(NC(=O)CCCCCCNC(=O)COc4cccc5c4C(=O)N(C4CCC(=O)NC4=O)C5=O)c3)nc(OC3CCN(C)CC3)nc12 (stereo not drawn) shows pIC50 equal to 4.89

The compound listed as `CC(C)c1cnn2c(NCc3ccccc3-n3ccnc3)nc(OC3CCN(C)CC3)nc12` shows pIC50 equal to 5.65

The compound listed as CC(C)c1cnn2c(NCc3ccc(NC(=O)CCCCCN4CCN(CCCc5cccc6c5CN(C5CCC(=O)NC5=O)C6=O)CC4)cc3)nc(OC3CCN(C)CC3)nc12 (stereo not drawn) shows pIC50 equal to 6.72

====

Test system: MDA-MB-468
assay-text: Growth inhibition of human MDA-MB-468 cells assessed as cell viability measured after 4 days by WST8 assay
Type: functional, cell-based
setup-conditions: MDA-MB-468, 96 h
readout-label: IC50

// worked examples, IC50 included
INSERT INTO results (compound, endpoint_value) VALUES
  ('CC(C)c1cnn2c(NCc3cc(NC(=O)CCCCCCNC(=O)COc4cccc5c4C(=O)N(C4CCC(=O)NC4=O)C5=O)ccc3N(C)C)nc(OC3CCN(C)CC3)nc12 (stereo not drawn)', '> 20 µM'),
  ('CC(C)c1cnn2c(NCc3ccccc3)cc(NCCCCCCNCCOCCNC(=O)COc3cccc4c3C(=O)N(C3CCC(=O)NC3=O)C4=O)nc12 (stereo not drawn)', '> 20 µM');

Next compound, please.
The compound listed as CC(C)c1cnn2c(NCc3ccccc3N(C)C)nc(OC3CCN(CCOCCOCCOCCNC(=O)COc4cccc5c4C(=O)N(C4CCC(=O)NC4=O)C5=O)CC3)nc12 (stereo not drawn) shows IC50 equal to > 20 µM
